Assay: folding stability dG unfold from trypsin proteolysis; higher = more stable
Cut-off 1 kcal/mol on folding stability dG unfold, inclusive. At or above means condition met; below means condition not met.

Chain Sequence: SMEPGERYRITATRKDGSRVEVEAIPGGVLRARVYLPNGELVGEAEFPVDRPVELLEALGLDELVSVEPESA [r9_1107_TrMRF]
Assigned Class: condition met
//
Chain Sequence: SAGGSPNIKITSKEKEGSKLKYTIQTPDKTITIEYSEGKATFKFPDGSTKTLTGKGSLEKAIKEAVLSSAGG [r13_98_JUSTAS]
Assigned Class: condition not met
//
Chain Sequence: SAGGSEVKIVKIESVEIEEENGFLRIKVRATLKFYDKETGELVEEKEVELEVTLKNGKKLTFKIKASAGGSA [r2_271_TrROS_Hall]
Assigned Class: condition met
//
Chain Sequence: SAGGSAGGSAGAAVSPEELKEKAKKEGYDGEVVVTRLPDGTLRVTVKDKGKKSEITVPLESAGGSAGGSAGG [r11_410_JUSTAS]
Assigned Class: condition not met
//
Chain Sequence: SAGGPSHPLGPVALTLDPAASTLTVTLGDEVLTLPVPPGVTATATSYPDSVTVTLTFPDGTVVTVTLPLSAG [r5_21_JUSTAS]
Assigned Class: condition met
//
Chain Sequence: SAGGSMSTSTLVRREIASVDPETGLRVVRVEVEEVDYGFDPKTGTVLGVSPVSPVSESVLLLPADAPPESAG [r5_903_JUSTAS]
Assigned Class: condition not met
//
Chain Sequence: SAGGSAGGSAGGMTPEEIEAALQKAREENSEDEEFTVTVTDPETGEVLTIRIDPNSVTIESAGGSAGGSAGG [r7_45_JUSTAS]
Assigned Class: condition met

###

Test: folding stability dG unfold from trypsin proteolysis; higher = more stable

Chain Sequence: SAGMTITKTEEFPKGPGSVTRTTVTLPNGKVVVEETITLEDPSVTKTVTKTIEPADGTVLETTTTTVPASAG [r5_108_JUSTAS]
folding stability dG unfold (kcal/mol): 0.302

Chain Sequence: SAGGSAGGSASLDLSNATVLEEKTDPAKGLKTLTIKTPTSTLTITVEFDENGNPVKMTVFESAGGSAGGSAG [r3_5_JUSTAS]
folding stability dG unfold (kcal/mol): 1.71

Chain Sequence: SAGGSAGGSAVLDPSSPRPFEIVEVRRVRFEATVSFAGRPRKLEIEVDLLLVRDPSNGRIGSAGGSAGGSAG [r3_391_TrMRF]
folding stability dG unfold (kcal/mol): 2.19

Chain Sequence: SAGGSAGGSAGGALVVEVEVEGERRTLVVPVPDEIPPGAEEVAKKLGLKDAKVKIAPLDLSAGGSAGGSAGG [r11_219_TrMRF]
folding stability dG unfold (kcal/mol): -0.662

Chain Sequence: SAGGSAMETIELKLEDGSTLTIERDPENPNTLTITFEDGRKITVTADSAEEALKKALELAKEGKLPSAGGSA [r15_38_TrROS_Hall]
folding stability dG unfold (kcal/mol): 4.36

Chain Sequence: SAAMLFEKKTGIKVDVSLVPPEQISQLPPSYTVTPEGDVVVVTTVTTLPLSSYPVKLPPVYDPNTLKLLSAG [r14_126_JUSTAS]
folding stability dG unfold (kcal/mol): 0.146

Chain Sequence: SETETITVEVTMPAEELANMSAEELAARLREAFPDLKITSISITVEEVEDPETGERLVRVTVTITVERVPSA [r9_1189_TrROS_Hall]
folding stability dG unfold (kcal/mol): 4.28

###

Experiment: folding stability dG unfold from trypsin proteolysis; higher = more stable
Cut-off 3 kcal/mol on folding stability dG unfold, inclusive. At or above means YES; below means NO.

Chain Sequence: SAGMLRELLDNPDVKRLEIVIFIPEEDLSEEDRERARERARELAERLRELLRERGYDVEIEVRIVRLPPSAG [r5_408_TrROS_Hall]
Assigned Class: YES

Chain Sequence: SAMPLEDMTPEQAEEFAKEFINRFQQENQKKGGPIPPGQEIEIPVRYKGGPVYIKITVTNPGNINIEVESAG [r14_501_TrROS]
Assigned Class: NO

Chain Sequence: SAGGSAGGNTIMIPLPPNMPLDEVAKELMDAFPDYPIKDVEYERYGDRPMVTVRFPDGWKITIWSAGGSAGG [r6_492_TrROS]
Assigned Class: NO

Chain Sequence: SMVVIEFETKKPKEQAEKAVEKAKKEIPELEEVLEIEVEEFPDFLKVKIVLKGGKITPEDLEKLKEFLEKSA [r9_195_TrMRF]
Assigned Class: NO

Chain Sequence: SAGGSAGGSWKPIPYKIKMTDGDGEKHEFPVQIWVAPEDGWVFIDFPNGHPFWIPANNIKIEPSAGGSAGGS [r12_256_TrROS]
Assigned Class: NO

Chain Sequence: SKWTIDIDITYYPEYGVITVTIRYPNSWEQARFDVRSFIHEAGMPIKLEDIEIEQVEGWYEITYTIRIPPSA [r9_164_TrROS]
Assigned Class: YES

Chain Sequence: SAGGMKIKIEIEPEGDVVKVKIEIELPEGKVEVVEEEEAEVFEDGKIKVRFRVRRKDGPEFEFELDISAGGS [r8_449_TrMRF]
Assigned Class: YES

###

Test: folding stability dG unfold from chymotrypsin proteolysis; higher = more stable
Measured Metric: folding stability dG unfold (kcal/mol)

Chain Sequence: SAGGSAGGSAGGGTVTLEIELKVKPGEKIKDLATGEEFEVKEGETVRIRITLPLPPAPEESAGGSAGGSAGG [r7_234_TrROS_Hall]
Unit Symbol: kcal/mol
Measured Result: 1.11
--
Chain Sequence: SAGGSMKVEVTVTETSTLGDGTRTYTVAVLIDGTPLTFTFPFTSEEEFREAVEEWAKERGVEITLTPSSAGG [r13_750_JUSTAS]
Unit Symbol: kcal/mol
Measured Result: 4.54
--
Chain Sequence: SAGGSAGGEYEISIPNYELTEEKFDPNPGLLTVTYKDPEGKLVTITYKVKPDSIEKVKTETFEPSAGGSAGG [r6_719_JUSTAS]
Unit Symbol: kcal/mol
Measured Result: 1.14
--
Chain Sequence: SAKITFIAPGGKPIVIDIDPNYEVIEVIEFPELGVVLILLRNPETGELYAILITPPDYRPTYIELIPLDSAG [r14_311_TrMRF]
Unit Symbol: kcal/mol
Measured Result: 4.29
--
Chain Sequence: SAGGSAGGSAGKVVLAKAKVTPPDGSEYEFDLAIEVPDDVVLVVGLHFDYPDQVDFVFEGSAGGSAGGSAGG [r11_781_TrMRF]
Unit Symbol: kcal/mol
Measured Result: 1.14
--
Chain Sequence: SAGGMMTPVSEETLPDGSKVLVEENPATGERTVTTLNPATGTVTTETLKRVPGENAWTLLSKTTTPAPSAGG [r19_249_JUSTAS]
Unit Symbol: kcal/mol
Measured Result: 1.83
--
Chain Sequence: SAGGSAGGSAGPVVVEVDGKLVIFNPEDGTVTVFEFDKDGKLVEEKEFTVPPEVTLVEEDSAGGSAGGSAGG [r17_385_TrROS_Hall]
Unit Symbol: kcal/mol
Measured Result: 1.06

###

Assay: folding stability dG unfold from trypsin proteolysis; higher = more stable
Cut-off 2 kcal/mol on folding stability dG unfold, inclusive. At or above means 1.0; below means 0.0.

Chain Sequence: SAGGSAGRVRVELELEIVVDTPEEARALAEELARRFPSIVRVEVEVRRRPDGRLVVRVRLEVELPPSAGGSA [r15_726_TrROS_Hall]
Assigned Class: 1.0
//
Chain Sequence: SAGGMPKPVTLPAVIELGAGPAIAVEEFPETGKLVFVFPPTHRIFVFDPNGKLVAEVDVPPDVPVSAVSAGG [r13_507_TrMRF]
Assigned Class: 0.0
//
Chain Sequence: SAGMVLKITVKDKKTKEEREIVIEIPEDDPELKKLGIKSPEELAKKLAEELKKEGIEVEEVKVEAYPLPSAG [r5_722_TrROS_Hall]
Assigned Class: 0.0
//
Chain Sequence: SAAVITLETENVTATSTLLEDGSVLVDVVEFYEDGYVSVVKAVIGPDGEIKVVERVVFPVPPPVPPPDASAG [r14_42_TrMRF]
Assigned Class: 1.0
//
Chain Sequence: SAGGYYIEFRNPNNGNTVTIPPELIEAIKSGDPDKLKKLPPWFRDALDNIDRVEIQPPPPVPPVPPGKSAGG [r13_233_TrROS]
Assigned Class: 0.0
//
Chain Sequence: SAGGSAGGSAGLIVTHPDGGVTTLRLTLTFTFEGPVGPPKTVTFEFTLTVAPNGTEVTLESAGGSAGGSAGG [r11_271_TrMRF]
Assigned Class: 1.0

###

Test: folding stability dG unfold (combined trypsin and chymotrypsin); higher = more stable
Cut-off 3 kcal/mol on folding stability dG unfold, inclusive. At or above means true (1); below means false (0).

Chain Sequence: SAGGSAGGSAGGMITVEYDPSRPVYTVTVTDPTTGKTTVIDVPRDDLEQALALAEALLKSAGGSAGGSAGGS [r10_1117_JUSTAS]
Assigned Class: false (0)
//
Chain Sequence: SAGGMVVELPSGLSPEELERAAEEIAAELPRRGVDPVEVTIEPVREVAPPDGPPVRLYRITIDTVPPSAGGS [r16_266_JUSTAS]
Assigned Class: false (0)
//
Chain Sequence: SAGGMKIKIEIEPEGDVVKVKIEIELPEGKVEVVEEEEAEVFEDGKIKVRFRVRRKDGPEFEFELDISAGGS [r8_449_TrMRF]
Assigned Class: true (1)
//
Chain Sequence: SAGGGVPLTRSEPLGEIEFPEENIKLKISRYTSPLDGTEYIEITTDYGEGTSTSIYPPGEIEEILGGSAGGS [r16_603_JUSTAS]
Assigned Class: false (0)
//
Chain Sequence: SAGGSAGGSPPESRPFTTDPGPSGEYTAKLLPPDGSSEEVVLPVSQPRTLNVPKDWSFEVLPPSAGGSAGGS [r12_517_JUSTAS]
Assigned Class: false (0)
//
Chain Sequence: SAGGMTETATTTTTLPDGTVVTTGTTTVTEGSSTTTTTFTTVTTVAPVPPPPYPPAPLPWPEDPVLASAGGS [r8_269_JUSTAS]
Assigned Class: false (0)
